# Tested on: NCI-H358
# assay overview: relative viability (nuclei count vs DMSO), 5 days (fraction); higher = more cells survive
# protocol conditions: first compound 0.6325 µM
Exercise: for every item that follows, state its recorded relative viability.
Please reply with the number alone, leaving off any unit.

Would you mind telling me what relative viability value was observed for Cc1csc(=NC2CCCCC2)n1/N=C/c1ccc(O)c(O)c1O [MIM1] + Nc1nc2[nH]cc(CCc3ccc(C(=O)N[C@@H](CCC(=O)O)C(=O)O)cc3)c2c(=O)[nH]1 [Pemetrexed] (partner 0.2 µM) ?
0.17

Would you mind telling me what relative viability value was observed for Cc1csc(=NC2CCCCC2)n1/N=C/c1ccc(O)c(O)c1O [MIM1] + Cc1cc(Nc2cc(N3CCN(C)CC3)nc(Sc3ccc(NC(=O)C4CC4)cc3)n2)n[nH]1 [Tozasertib] (partner 0.1 µM) ?
0.0936

Would you mind telling me what relative viability value was observed for CN1CCN(CCOc2cc(OC3CCOCC3)c3c(Nc4c(Cl)ccc5c4OCO5)ncnc3c2)CC1 [Saracatinib] + Nc1nc2[nH]cc(CCc3ccc(C(=O)N[C@@H](CCC(=O)O)C(=O)O)cc3)c2c(=O)[nH]1 [Pemetrexed] (partner 0.2 µM) ?
0.156

Would you mind telling me what relative viability value was observed for Cc1csc(=NC2CCCCC2)n1/N=C/c1ccc(O)c(O)c1O [MIM1] + Nc1ncn([C@H]2C[C@H](O)[C@@H](CO)O2)c(=O)n1 [Decitabine] (partner 2 µM) ?
0.224
